test system: Nakaseomyces glabratus; assay: Antifungal activity against Candida glabrata NCIM-3266 at 18 to 24 hrs by CLSI based alamar blue assay; type: functional
RESULT TYPE: MIC (mg/L)
Answers are plain numbers, in mg/L.

Which MIC value belongs to O=[N+]([O-])c1ccc(-c2csc(Nc3nc(N(c4ccccc4)c4ccccc4)nc(N(c4ccccc4)c4ccccc4)n3)n2)cc1 ? 0.32

Okay, now this molecule:
Which MIC value belongs to OC(Cn1cncn1)(Cn1cncn1)c1ccc(F)cc1F ? 0.63

###

system: Lacticaseibacillus casei; experiment: Antibacterial activity against Lactobacillus casei NCIM-2651 assessed as reduction in microbial growth incubated for 24 hrs by broth dilution method; assay type: functional; details: NCIM-2651, 24 h
RESULT TYPE: MIC (µg/mL)
One number for each entry, in µg/mL.

Return MIC measured with Lacticaseibacillus casei given this compound: Nc1nc(Nc2ccccc2)nc(Nc2nc(-c3ccc(Cl)c(Cl)c3)cs2)n1 3.12

Return MIC measured with Lacticaseibacillus casei given this compound: Nc1nc(Nc2nc(-c3ccc(Cl)cc3)cs2)nc(Sc2ccccc2)n1 3.12

Return MIC measured with Lacticaseibacillus casei given this compound: CN[C@@H]1[C@H](O[C@H]2[C@H](O[C@H]3[C@H](O)[C@@H](O)[C@H](N=C(N)N)[C@@H](O)[C@@H]3N=C(N)N)O[C@@H](C)[C@]2(O)C=O)O[C@@H](CO)[C@H](O)[C@H]1O [STREPTOMYCIN] 12.5

Return MIC measured with Lacticaseibacillus casei given this compound: Nc1nc(Nc2nc(-c3ccc(Cl)c(Cl)c3)cs2)nc(Sc2ccccc2)n1 3.12

---
Return MIC measured with Lacticaseibacillus casei given this compound: Nc1nc(Nc2ccccc2)nc(Nc2nc(-c3ccc(Cl)cc3)cs2)n1 3.12

###

system: Escherichia coli; assay: Antimicrobial activity multi drug-resistant against Escherichia coli; assay type: functional
Provide the reported MIC of each item.
Numbers only, in µg/mL.

Which MIC value belongs to COc1ccc(C2=NN=C3C(F)CC4=C(C(C5CC5)C=C(C(=O)O)C4=O)N3C2)cc1OC (configuration not stated) ? 0.5

Which MIC value belongs to O=C(O)C1=CC(C2CC2)C2=C(CC(F)C3=NN=C(c4ccc(Cl)cc4)CN32)C1=O (configuration not stated) ? 8

Which MIC value belongs to COc1ccccc1C1=NN=C2C(F)CC3=C(C(C4CC4)C=C(C(=O)O)C3=O)N2C1 (configuration not stated) ? 0.5

Please supply MIC for each of the following items, keeping them in order.
1. O=C(O)C1=CC(C2CC2)C2=C(CC(F)C3=NN=C(c4cccc(Cl)c4)CN32)C1=O (configuration not stated)
2. O=C(O)C1=CC(C2CC2)C2=C(CC(F)C3=NN=C(c4ccccc4F)CN32)C1=O (configuration not stated)
3. Cc1ccc(C2=NN=C3C(F)CC4=C(C(C5CC5)C=C(C(=O)O)C4=O)N3C2)cc1 (configuration not stated)

1. 8
2. 0.25
3. 0.25

Which MIC value belongs to O=C(O)C1=CC(C2CC2)C2=C(CC(F)C3=NN=C(c4ccc([N+](=O)[O-])cc4)CN32)C1=O (configuration not stated) ? 0.25

###

test system: Escherichia coli; experiment: Antimicrobial activity against Escherichia coli ATCC 25922 assessed as reduction in microbial growth after 24 to 48 hrs by microdilution susceptibility test; assay type: functional
RESULT TYPE: MIC (µg/mL)
One number for each entry, in µg/mL.

Completed entries (count: 3):
Return MIC measured with Escherichia coli given this compound: O=C(O)c1ccc(Nc2nc(Cl)nc(N3CCCCC3)n2)cc1 25

Return MIC measured with Escherichia coli given this compound: CC1(C)S[C@@H]2[C@H](NC(=O)[C@H](N)c3ccccc3)C(=O)N2[C@H]1C(=O)O.O.O.O [AMPICILLIN TRIHYDRATE] 25

Return MIC measured with Escherichia coli given this compound: CC1(C)S[C@@H]2[C@H](NC(=O)[C@H](N)c3ccccc3)C(=O)N2[C@H]1C(=O)O 25

Okay, now this compound:
Return MIC measured with Escherichia coli given this compound: O=C(O)c1ccc(Nc2nc(Cl)nc(NCc3ccccc3)n2)cc1 50
